Test system: PGE2 release by human monocytes
Assay: Assay (f): stimulated eicosanoid release by human monocytes, Prostaglandin E2
Type: cell-based
Conditions: Monocyte, 0.25 h, A23187 1 μM, 15 min
pIC50: −log10 of the molar value.

| Compound string | Measured target | pIC50 |
| --- | --- | --- |
| O=C(O)c1ccccc1Oc1ccc(C(F)(F)F)cc1NS(=O)(=O)c1cc(C(F)(F)F)cc(C(F)(F)F)c1 | PGE2 release by human monocytes | < 4.52 |
| O=C(O)c1ccccc1Oc1ccccc1NS(=O)(=O)c1cc(C(F)(F)F)cc(C(F)(F)F)c1 | PGE2 release by human monocytes | < 4.00 |
| O=C(O)c1ccccc1Oc1ccc(C(F)(F)F)cc1NS(=O)(=O)c1ccc2ccccc2c1 | PGE2 release by human monocytes | < 4.52 |
| CCC(C)(C)c1ccc(Oc2ccc(C(F)(F)F)cc2NS(=O)(=O)c2cc(C(F)(F)F)cc(C(F)(F)F)c2)c(C(=O)O)c1 | PGE2 release by human monocytes | < 5.52 |
| Cc1ccc(Oc2ccccc2C(=O)O)c(NS(=O)(=O)c2cc(C(F)(F)F)cc(C(F)(F)F)c2)c1 | PGE2 release by human monocytes | < 4.52 |
| CCCCCCCCS(=O)(=O)Nc1ccccc1Oc1ccccc1C(=O)O | PGE2 release by human monocytes | 4.70 to 5.00 |
